Recorded Kd for molecules tested on UniProt:P36888, drawn from a number of studies.
- targetEntity: UniProt:P36888
- Sequence (P36888 whole entry): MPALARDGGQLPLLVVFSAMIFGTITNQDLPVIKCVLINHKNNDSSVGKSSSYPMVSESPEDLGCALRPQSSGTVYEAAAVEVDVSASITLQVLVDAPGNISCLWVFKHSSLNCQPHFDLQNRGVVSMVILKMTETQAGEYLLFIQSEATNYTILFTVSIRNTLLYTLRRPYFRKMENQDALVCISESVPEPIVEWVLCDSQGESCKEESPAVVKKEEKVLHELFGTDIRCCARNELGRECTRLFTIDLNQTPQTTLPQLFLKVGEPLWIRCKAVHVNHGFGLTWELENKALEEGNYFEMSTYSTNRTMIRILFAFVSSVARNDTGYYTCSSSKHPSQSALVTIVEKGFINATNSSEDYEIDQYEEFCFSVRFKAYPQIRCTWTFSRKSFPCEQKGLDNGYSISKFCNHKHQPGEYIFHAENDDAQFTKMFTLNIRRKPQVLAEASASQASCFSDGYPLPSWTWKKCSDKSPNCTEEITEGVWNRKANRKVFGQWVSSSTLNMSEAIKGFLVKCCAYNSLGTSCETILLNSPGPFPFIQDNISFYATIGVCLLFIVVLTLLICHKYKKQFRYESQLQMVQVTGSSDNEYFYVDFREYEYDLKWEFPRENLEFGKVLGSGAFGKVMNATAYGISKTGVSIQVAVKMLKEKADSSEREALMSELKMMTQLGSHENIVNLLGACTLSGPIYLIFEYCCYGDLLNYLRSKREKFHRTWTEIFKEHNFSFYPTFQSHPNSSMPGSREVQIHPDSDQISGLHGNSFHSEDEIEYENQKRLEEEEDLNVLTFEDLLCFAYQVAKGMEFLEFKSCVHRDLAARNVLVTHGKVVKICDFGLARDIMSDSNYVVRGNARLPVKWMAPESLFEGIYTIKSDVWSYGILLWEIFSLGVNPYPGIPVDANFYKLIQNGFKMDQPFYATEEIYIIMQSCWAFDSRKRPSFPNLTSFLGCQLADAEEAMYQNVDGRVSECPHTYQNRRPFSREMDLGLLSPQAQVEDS
observable: Kd (nM)

smi | observable | value
C[C@H]1CC[C@H](n2c3cnccc3c3cnc(Nc4ccc5c(n4)CCN(C(=O)CO)C5)nc32)CC1 | Kd | 4
CCc1ccc2c(c1)c(=O)c(C(=O)Nc1ccc(Oc3ncnc4cc(OC)c(OC)cc34)c(F)c1)c(C)n2C | Kd | 4
CC(C)(C)c1cc(NC(=O)Nc2ccc(NC(=O)c3ccccn3)cc2)no1 | Kd | 0.76
C[C@]12O[C@H](C[C@H](O)[C@H]1O)n1c3ccccc3c3c4c(c5c6ccccc6n2c5c31)C(=O)NC4=O | Kd | 3.2
CC(C)(C)c1cc(NC(=O)Nc2ccc(NC(=O)c3nccc4ccccc34)cc2)no1 | Kd | 0.74
C[C@@H](Nc1ccc2[nH]nc(/C=C/c3ccccn3)c2c1)c1cc(F)cc(F)c1 | Kd | 190
CC(C)(C)c1cc(NC(=O)Nc2ccc(-c3cn4c(n3)sc3cc(OCCN5CCCCC5)ccc34)cc2)no1 | Kd | 1.5
CC(C)(C)c1cc(NC(=O)Nc2ccc(-c3cn4c(n3)sc3ccccc34)cc2)no1 | Kd | 1.9
CC(C)(C)c1cc(NC(=O)Nc2ccc(-c3cn4c(n3)sc3cc(O)ccc34)cc2)no1 | Kd | 2.7
Cc1ccc2sc(C(=O)Nc3ccc(NC(=O)Nc4cc(C(C)(C)C)on4)cc3)cc2c1 | Kd | 0.77
CC(C)(C)c1cc(NC(=O)Nc2ccc(NC(=O)C3CCNCC3)cc2)no1 | Kd | 240
CC(C)(C)c1cc(NC(=O)Nc2ccc(-c3cn4c(n3)sc3cc(OCCCN5CCN(S(C)(=O)=O)CC5)ccc34)cc2)no1 | Kd | 9.7
Cc1cn(-c2cc(F)cc(NC(=O)c3ccc(C)c(Nc4nccc(-c5cccnc5)n4)c3)c2)cn1 | Kd | 58
CN1CCN(CCCOc2ccc3c(c2)sc2nc(-c4ccc(NC(=O)Nc5cc(C(C)(C)C)on5)cc4)cn23)CC1 | Kd | 1.7
CC(C)(C)c1cc(NC(=O)Nc2ccc(-c3cn4c(n3)sc3cc(CCC(=O)N5CCOCC5)ccc34)cc2)no1 | Kd | 1.5
CC(C)(C)c1cc(NC(=O)Nc2ccc(C(=O)Nc3cccnc3)cc2)no1 | Kd | 25
CC(C)(C)c1cc(NC(=O)Nc2ccc(NC(=O)c3ccncc3)cc2)no1 | Kd | 10.1
CC(C)(C)c1cc(NC(=O)Nc2ccc(NC(=O)c3ccccc3)cc2)no1 | Kd | 0.98
